Each recorded value in this set is attributed to BindingDB's records for doi:10.1021/acs.jmedchem.7b01449.

Assay: Inhibition of RIPK1 in mouse L929sA cells transfected with human Fas assessed as inhibition in TNF-induced necroptosis pretreated for 0.5 hrs followed by TNF and zVAD.fmk addition measured after 3 hrs by Hoechst 33342/propidium iodide staining-based assay
Assay readout: IC50 (nM)
Respond numerically; units are nM and should not be typed.

Line notation	Val
Cc1cc(Nc2nc(Nc3ccc(NC(=O)C4CC4)cc3)nc(N3CCOCC3)n2)n[nH]1	1060
Cc1cc(Nc2cc(N3CCN(C)CC3)nc(Nc3ccc(NC(=O)C4CC4)cc3)n2)n[nH]1	1040

Please look up its IC50: Cc1cc(Nc2nc(Sc3ccc(NC(=O)C4CC4)cc3)nc(N3CCOCC3)n2)n[nH]1
700
